The entries below are paired with their reported cytotoxicity at 70.5 h.
- procedure.details: Human HepG2 cell viability assay in 384 well format
- Format: toxicity, cell-based
- Parameters: dose 125 nL, time 70.5 hour; concentration not given beside the values
- measurement.setup: HepG2 cells, read-out: Inhibition
// units = %; emit number, no label

Past entries and their recorded results:
Cc1nc(CN2CCCC23CCN(c2nc4ccccc4s2)CC3)co1 :: -12.9
CCOC(C)c1nc(CN2CCC(NC(C)C)CC2)cs1 (configuration not stated) :: -2.82
CCCn1cc(C(=O)NC(C(=O)O)c2ccccc2C(F)(F)F)c(C)n1 (configuration not stated) :: -8.7
CN1CCCC1CNC(=O)CCCOc1ccc(Cl)cc1 (configuration not stated) :: -2.04
COC1(CNC(=O)NCc2ccccc2)CCSC1 (configuration not stated) :: -9.9
O=C(C1CCCN(C2CCOCC2)C1)N1CCc2ncccc2C1 (configuration not stated) :: -4.26

Next up:
Consider the compound shown here: CC(O)CN1CCN(C(=O)c2cn(-c3ccccc3Cl)nn2)CC1 (configuration not stated) What is its recorded cytotoxicity at 70.5 h?
-9.71
